The reported measurements were obtained from PubChem BioAssay AID2060498.

- Tested on: 171881-019-R-J1-PDC tumor spheroids, viability
- test-details: Anticancer human tumor 171881-019-R-J1-PDC patient-derived invasive breast carcinoma cell line growth inhibition [GQUAD]; active = viability on the fitted dose curve at most 10% of control; inactive = the rest
- condition-parameters: second compound 1 µM; first compound 1 µM; spheroids with HUVEC and MSC
Please answer using one outcome listed in y (active), n (inactive)

Query string: Just curious, what result did CC1COCCN1c1cc(C2(O)CC3CCC(C2)O3)c2cnn(-c3ccn[nH]3)c2n1 (stereo not given) + Cc1[nH]c2ccc(F)cc2c1-c1nc2c3cccnc3c3ncccc3c2[nH]1 get here?
Result string: y

Query string: Just curious, what result did C=CC(=O)N1CCN(c2nc(=O)n(-c3c(C)ccnc3C(C)C)c3nc(-c4c(O)cccc4F)c(F)cc23)C(C)C1 (stereo not given) + Cc1[nH]c2ccc(F)cc2c1-c1nc2c3cccnc3c3ncccc3c2[nH]1 get here?
Result string: n

Query string: Just curious, what result did C#Cc1c(F)ccc2cc(O)cc(-c3ncc4c(N5CC6CCC(C5)N6)nc(OCC56CCCN5CC(F)C6)nc4c3F)c12 (stereo not given) + Cc1cnc(CNC(=O)c2c(=O)c3ccc(N4CCCN(C)CC4)nc3n3c2sc2ccccc23)cn1 get here?
Result string: n

Query string: Just curious, what result did CC1COCCN1c1cc(C2(O)CC3CCC(C2)O3)c2cnn(-c3ccn[nH]3)c2n1 (stereo not given) + CN(C)c1ccc(Nc2c3ccc(NC(=O)CCN4CCCC4)cc3nc3cc(NC(=O)CCN4CCCC4)ccc23)cc1 get here?
Result string: y

Query string: Just curious, what result did C#Cc1c(F)ccc2cc(O)cc(-c3ncc4c(N5CC6CCC(C5)N6)nc(OCC56CCCN5CC(F)C6)nc4c3F)c12 (stereo not given) + CN(C)c1ccc(Nc2c3ccc(NC(=O)CCN4CCCC4)cc3nc3cc(NC(=O)CCN4CCCC4)ccc23)cc1 get here?
Result string: y

* * *

- System: 171881-019-R-J1-PDC tumor spheroids, viability
- test-details: Anticancer human tumor 171881-019-R-J1-PDC cell line growth inhibition [GQUAD];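 also: spheroids exposed to compounds for 7 days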
- condition-parameters: second compound 0.0316 µM; first compound 0.316 µM; active compounds read low; spheroids with HUVEC and MSC
// boundary case: viability, T/C equal to 60% maps to False; strictly smaller maps to True

Query string: Answer whether the molecule CC(=O)O[C@H]1C(=O)[C@@]2(C)[C@H]([C@H](OC(=O)c3ccccc3)[C@]3(O)C[C@H](OC(=O)[C@H](O)[C@@H](NC(=O)c4ccccc4)c4ccccc4)C(C)=C1C3(C)C)[C@]1(OC(C)=O)CO[C@@H]1C[C@@H]2O + Cc1cnc(CNC(=O)c2c(=O)c3ccc(N4CCCN(C)CC4)nc3n3c2sc2ccccc23)cn1 has viability, T/C strictly less than 60%
Result string: True

Query string: Answer whether the molecule CC[C@@]1(O)C(=O)OCc2c1cc1n(c2=O)Cc2cc3c(CN(C)C)c(O)ccc3nc2-1 + Cc1cnc(CNC(=O)c2c(=O)c3ccc(N4CCCN(C)CC4)nc3n3c2sc2ccccc23)cn1 has viability, T/C strictly less than 60%
Result string: True

Query string: Answer whether the molecule COc1ncnc(C2CC2)c1-c1ncc2cnn(Cc3ccc(-c4nc(C(F)(F)F)cn4C(C)C)cc3)c2n1 + CN(C)c1ccc(Nc2c3ccc(NC(=O)CCN4CCCC4)cc3nc3cc(NC(=O)CCN4CCCC4)ccc23)cc1 has viability, T/C strictly less than 60%
Result string: False

Query string: Answer whether the molecule CCCS(=O)(=O)Nc1ccc(F)c(C(=O)c2c[nH]c3ncc(-c4ccc(Cl)cc4)cc23)c1F + Cc1cnc(CNC(=O)c2c(=O)c3ccc(N4CCCN(C)CC4)nc3n3c2sc2ccccc23)cn1 has viability, T/C strictly less than 60%
Result string: False

Query string: Answer whether the molecule Nc1ccn(C2OC(CO)C(O)C2(F)F)c(=O)n1 (stereo unspecified) + Cc1cnc(CNC(=O)c2c(=O)c3ccc(N4CCCN(C)CC4)nc3n3c2sc2ccccc23)cn1 has viability, T/C strictly less than 60%
Result string: True

Query string: Answer whether the molecule O=c1[nH]cc(F)c(=O)[nH]1 + Cc1cnc(CNC(=O)c2c(=O)c3ccc(N4CCCN(C)CC4)nc3n3c2sc2ccccc23)cn1 has viability, T/C strictly less than 60%
Result string: True

Query string: Answer whether the molecule C=CCn1c(=O)c2cnc(Nc3ccc(N4CCN(C)CC4)cc3)nc2n1-c1cccc(C(C)(C)O)n1 + Cc1cnc(CNC(=O)c2c(=O)c3ccc(N4CCCN(C)CC4)nc3n3c2sc2ccccc23)cn1 has viability, T/C strictly less than 60%
Result string: False

Query string: Answer whether the molecule O=C(NO)c1cnc(N2CCN(S(=O)(=O)c3ccc4ccccc4c3)CC2)nc1 + CN(C)c1ccc(Nc2c3ccc(NC(=O)CCN4CCCC4)cc3nc3cc(NC(=O)CCN4CCCC4)ccc23)cc1 has viability, T/C strictly less than 60%
Result string: True

Query string: Answer whether the molecule C=CC(=O)N1CCN(c2nc(=O)n(-c3c(C)ccnc3C(C)C)c3nc(-c4c(O)cccc4F)c(F)cc23)C(C)C1 (stereo unspecified) + Cc1cnc(CNC(=O)c2c(=O)c3ccc(N4CCCN(C)CC4)nc3n3c2sc2ccccc23)cn1 has viability, T/C strictly less than 60%
Result string: False

Query string: Answer whether the molecule CC[C@@]1(O)C(=O)OCc2c1cc1n(c2=O)Cc2cc3c(CN(C)C)c(O)ccc3nc2-1 + CN(C)c1ccc(Nc2c3ccc(NC(=O)CCN4CCCC4)cc3nc3cc(NC(=O)CCN4CCCC4)ccc23)cc1 has viability, T/C strictly less than 60%
Result string: True

* * *

- System: 171881-019-R-J1-PDC tumor spheroids, viability
- test-details: Anticancer human tumor 171881-019-R-J1-PDC cell line growth inhibition [GQUAD]; active = viability on the fitted dose curve at most 10% of control; inactive = the rest;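 also: spheroids exposed to compounds for 7 days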
- condition-parameters: second compound 10 µM; first compound 10 µM; spheroids with HUVEC and MSC
Please answer using one outcome listed in active, inactive

Query string: Just curious, what result did Cc1cccc(N(C)C(=O)C2C(O)CCN2c2nc(C)cc(C(F)(F)F)c2C#N)c1 (stereo unspecified) + Cc1[nH]c2ccc(F)cc2c1-c1nc2c3cccnc3c3ncccc3c2[nH]1 get here?
Result string: inactive

Query string: Just curious, what result did CC1COCCN1c1cc(-c2ccnn2C)c2ccnc(-c3ccn[nH]3)c2n1 (stereo unspecified) + Cc1[nH]c2ccc(F)cc2c1-c1nc2c3cccnc3c3ncccc3c2[nH]1 get here?
Result string: active

Query string: Just curious, what result did CC1COCCN1c1cc(-c2ccnn2C)c2ccnc(-c3ccn[nH]3)c2n1 (stereo unspecified) + CN(C)c1ccc(Nc2c3ccc(NC(=O)CCN4CCCC4)cc3nc3cc(NC(=O)CCN4CCCC4)ccc23)cc1 get here?
Result string: active

Query string: Just curious, what result did O=c1[nH]cc(F)c(=O)[nH]1 + CN(C)c1ccc(Nc2c3ccc(NC(=O)CCN4CCCC4)cc3nc3cc(NC(=O)CCN4CCCC4)ccc23)cc1 get here?
Result string: active

Query string: Just curious, what result did COc1cc(C2c3cc4c(cc3C(OC3OC5COC(C)OC5C(O)C3O)C3COC(=O)C23)OCO4)cc(OC)c1O (stereo unspecified) + Cc1cnc(CNC(=O)c2c(=O)c3ccc(N4CCCN(C)CC4)nc3n3c2sc2ccccc23)cn1 get here?
Result string: inactive

Query string: Just curious, what result did CC1COCCN1c1cc(C2(O)CC3CCC(C2)O3)c2cnn(-c3ccn[nH]3)c2n1 (stereo unspecified) + Cc1cnc(CNC(=O)c2c(=O)c3ccc(N4CCCN(C)CC4)nc3n3c2sc2ccccc23)cn1 get here?
Result string: active

Query string: Just curious, what result did C=CCn1c(=O)c2cnc(Nc3ccc(N4CCN(C)CC4)cc3)nc2n1-c1cccc(C(C)(C)O)n1 + Cc1[nH]c2ccc(F)cc2c1-c1nc2c3cccnc3c3ncccc3c2[nH]1 get here?
Result string: inactive

Query string: Just curious, what result did COc1cccc2c1C(=O)c1c(O)c3c(c(O)c1C2=O)CC(O)(C(=O)CO)CC3OC1CC(N)C(O)C(C)O1 (stereo unspecified) + Cc1cnc(CNC(=O)c2c(=O)c3ccc(N4CCCN(C)CC4)nc3n3c2sc2ccccc23)cn1 get here?
Result string: active

Query string: Just curious, what result did COc1ccc([C@@H](O)c2cc(-c3ncnc4cc(N5CCOCC5)ccc34)c(F)cc2Cl)nn1 + CN(C)c1ccc(Nc2c3ccc(NC(=O)CCN4CCCC4)cc3nc3cc(NC(=O)CCN4CCCC4)ccc23)cc1 get here?
Result string: active

Query string: Just curious, what result did CC(C)(O)C1CCC(Nc2ccc3ncc(-c4cccc(C(F)(F)F)c4)n3n2)CC1 (stereo unspecified) + Cc1cnc(CNC(=O)c2c(=O)c3ccc(N4CCCN(C)CC4)nc3n3c2sc2ccccc23)cn1 get here?
Result string: active

Query string: Just curious, what result did COc1cc(C2c3cc4c(cc3C(OC3OC5COC(C)OC5C(O)C3O)C3COC(=O)C23)OCO4)cc(OC)c1O (stereo unspecified) + CN(C)c1ccc(Nc2c3ccc(NC(=O)CCN4CCCC4)cc3nc3cc(NC(=O)CCN4CCCC4)ccc23)cc1 get here?
Result string: active
